# systemUnderTest: 3-hydroxy-3-methylglutaryl-CoA reductase (Rattus norvegicus, UniProt P51639)
# Sequence (P51639 1-887): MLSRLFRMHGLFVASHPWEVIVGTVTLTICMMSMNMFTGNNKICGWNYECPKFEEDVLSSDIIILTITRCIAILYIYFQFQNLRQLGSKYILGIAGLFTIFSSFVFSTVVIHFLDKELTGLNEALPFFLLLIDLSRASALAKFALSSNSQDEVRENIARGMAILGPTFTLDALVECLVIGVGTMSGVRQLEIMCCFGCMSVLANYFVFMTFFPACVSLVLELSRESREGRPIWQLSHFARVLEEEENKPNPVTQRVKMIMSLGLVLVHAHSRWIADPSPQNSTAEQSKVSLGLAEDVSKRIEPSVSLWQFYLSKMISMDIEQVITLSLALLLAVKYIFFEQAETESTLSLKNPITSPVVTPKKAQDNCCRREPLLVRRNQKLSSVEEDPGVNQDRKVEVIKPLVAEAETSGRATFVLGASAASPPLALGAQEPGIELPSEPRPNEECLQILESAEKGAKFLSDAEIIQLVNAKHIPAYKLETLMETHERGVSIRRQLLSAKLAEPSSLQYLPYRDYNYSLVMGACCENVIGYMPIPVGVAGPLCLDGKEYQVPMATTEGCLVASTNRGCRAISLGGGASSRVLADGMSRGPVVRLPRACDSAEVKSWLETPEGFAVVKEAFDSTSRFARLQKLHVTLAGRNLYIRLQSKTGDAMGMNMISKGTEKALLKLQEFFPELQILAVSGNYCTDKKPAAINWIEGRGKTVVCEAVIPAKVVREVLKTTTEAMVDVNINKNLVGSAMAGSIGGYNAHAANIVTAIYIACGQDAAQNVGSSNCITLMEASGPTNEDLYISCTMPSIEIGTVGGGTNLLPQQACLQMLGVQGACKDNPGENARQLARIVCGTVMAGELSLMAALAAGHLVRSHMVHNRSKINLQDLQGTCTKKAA
Threshold 40 nM. IC50 below it: 1. IC50 at it or above: -1.

[
  {
    "compound": "C[C@H]1C[C@H](OC(=O)C(C)(C)Oc2ccc(-c3ccccc3)cc2)CC(C)(C)C1 (relative stereo)",
    "class": -1
  },
  {
    "compound": "C[C@@H]1C[C@H](OC(=O)C(C)(C)Oc2ccc(C(=O)c3ccc(Cl)cc3)cc2)CC(C)(C)C1 (relative stereo)",
    "class": 1
  },
  {
    "compound": "CCC(=O)c1ccc(OC(C)(C)C(=O)O[C@H]2C[C@@H](C)CC(C)(C)C2)cc1 (relative stereo)",
    "class": 1
  },
  {
    "compound": "CC(=O)c1ccc(OC(C)(C)C(=O)O[C@H]2C[C@@H](C)CC(C)(C)C2)c(Cl)c1 (relative stereo)",
    "class": 1
  },
  {
    "compound": "Cc1ccc(C)c(OCCCC(C)(C)C(=O)O[C@H]2C[C@@H](C)CC(C)(C)C2)c1 (relative stereo)",
    "class": 1
  }
]
